Attribution: patent EP2886536A1

Below is a list of entries, each paired with its recorded IC50 value.
- System: NCl-H460
- Procedure Details: cells
- Assay type: cell-based
- Run Conditions: 96 h, read-out: IC50 values
Counter-ions that a name gives are not always drawn.

[
  {
    "Molecule": "Cn1c(CCCC(=O)O)nc2cc(N(CCCl)CCCl)ccc21 [bendamustine-HCl, reference compound]",
    "Readout Units": "µM",
    "Value Comparator": "=",
    "IC50": 89.5
  },
  {
    "Molecule": "CCOC(=O)CCCc1nc2ccc(N(CCCl)CCCl)cc2n1C",
    "Readout Units": "µM",
    "Value Comparator": "=",
    "IC50": 5.4
  },
  {
    "Molecule": "Cl.Cn1c(CCCC(=O)O)nc2ccc(N(CCCl)CCCl)cc21 [iso-bendamustine-HCl]",
    "Readout Units": "µM",
    "Value Comparator": ">",
    "IC50": 100
  }
]
